Origin of values: PubChem BioAssay (NCI)

Test system: SK-OV-3 ovarian
assay explanation: NCI-60 one-dose screen, 48 h
condition info: 10 µM unless noted
About 83,000 compounds went through this panel and 20% of them were active in at least one assay; those are over-represented in the sample as a whole. Calls of active or inactive are those of the source. How the source made its calls: active means growth percent below 10; inactive means the rest.
Return exactly one item of active, inactive

compound	category
O=[N+]([O-])c1ccc(S(=O)(=O)N2CCN(c3ccnc4cc(Cl)ccc34)CC2)c([N+](=O)[O-])c1	inactive
COc1cc(CCn2nnc3c(Nc4ccc(N5CCOCC5)cc4)ncnc32)cc(OC)c1	inactive
CCC1=C[C@@H]2CN(C1)Cc1c([nH]c3ccccc13)[C@@](C(=O)OC)(c1cc3c(cc1OC)N(C=O)[C@H]1[C@@](O)(C(=O)OC)[C@H](OC(C)=O)[C@]4(CC)[C@@H]5C[C@@H]5CN5CC[C@]31[C@@H]54)C2	active

# input for lookup
Challenge: Recorded test outcome, item CC(CCc1ccccc1)NC(=O)c1n[nH]c(=O)c2ccccc12 (centres undefined)
Response given: inactive
